Reported Kd values for a set of binders
# testSystem: T1, sIL-4Rα (soluble IL-4Rα) antigen protein (human, UniProt P24394 26-232)
# T1 construct: The ELISA and Octet assays used the bought protein (Sinobio 10402-H08H); also called CD124; sinobio 10402-H08H
# assayDetails: BLI (Octet QKe), antibody on AHC sensor, sIL-4Rα in solution, 1:1 model

{"binder": "4R.N4 (antibody, V domains shown, Converted from scFab to IgG1 and expressed in HEK293F) VH: EVQLLESGGGLVQPGGSLRLSCAASGFTFSRHAMAWVRQAPGKGLEWVSAITMSGRGIYYADSVKGRFTISRDNSKNTLYLQMNSLRAEDTAVYYCARVHRAFDYWGQGTLVTVSS VL: QSVLTQPPSASGTPGQRVTISCSGSPLFPDSGSFNWYQQLPGTAPKLLIYADSHRPSGVPDRFSGSKSGTSASLAISGLRSEDEADYYCGTWDYSLSAYVLGGGTKLTVLG", "readingUnit": "nM", "Kd": 0.0997}
{"binder": "4R.N1 (antibody, V domains shown, Converted from scFab to IgG1 (pcDNA3.4 vector with IgG1 constant regions) and expressed in HEK293F) VH: EVQLLESGGGLVQPGGSLRLSCAASGFTFSRHAMAWVRQAPGKGLEWVSAITASGRSIYYADSVKGRFTISRDNSKNTLYLQMNSLRAEDTAVYYCARVHRAFDYWGQGTLVTVSS VL: QSVLTQPPSASGTPGQRVTISCSGSPLFPDSGSFNWYQQLPGTAPKLLIYADSHRPSGVPDRFSGSKSGTSASLAISGLRSEDEADYYCGTWDYSLNRYVLGGGTKLTVLG", "readingUnit": "nM", "Kd": 0.17}
{"binder": "4R.N6 (antibody, V domains shown, Converted from scFab to IgG1 and expressed in HEK293F) VH: EVQLLESGGGLVQPGGSLRLSCAASGFTFSRHAMAWVRQAPGKGLEWVSAITMSGRSIYYADSVKGRFTISRDNSKNTLYLQMNSLRAEDTAVYYCARVHRAFDYWGQGTLVTVSS VL: QSVLTQPPSASGTPGQRVTISCSGSPLFPDSGSFNWYQQLPGTAPKLLIYADSHRPSGVPDRFSGSKSGTSASLAISGLRSEDEADYYCGTWDYSLNSYVLGGGTKLTVLG", "readingUnit": "nM", "Kd": 0.0705}
{"binder": "4R.N5 (antibody, V domains shown, Converted from scFab to IgG1 and expressed in HEK293F) VH: EVQLLESGGGLVQPGGSLRLSCAASGFTFSRHAMAWVRQAPGKGLEWVSAITASGMSIYYADFAKGRFTISRDNSKNTLYLQMNSLRAEDTAVYYCARVHRAFDYWGQGTLVTVSS VL: QSVLTQPPSASGTPGQRVTISCSGSPLFPDSGSFNWYQQLPGTAPKLLIYADSHRPSGVPDRFSGSKSGTSASLAISGLRSEDEADYYCGTWDYSLNRYVLGGGTKLTVLG", "readingUnit": "nM", "Kd": 0.0748}
{"binder": "4R.N3 (antibody, V domains shown, Converted from scFab to IgG1 and expressed in HEK293F) VH: EVQLLESGGGLVQPGGSLRLSCAASGFTFSRHAMAWVRQAPGKGLEWVSAITMSGRSIYYADSVKGRFTISRDNSKNTLYLQMNSLRAEDTAVYYCARVHRAFDYWGQGTLVTVSS VL: QSVLTQPPSASGTPGQRVTISCSGSPLFPDSGSFNWYQQLPGTAPKLLIYADSHRPSGVPDRFSGSKSGTSASLAISGLRSEDEADYYCGTWDYSLNRYVLGGGTKLTVLG", "readingUnit": "nM", "Kd": 0.0686}
{"binder": "4R.N7 (antibody, V domains shown, Converted from scFab to IgG1 and expressed in HEK293F) VH: EVQLLESGGGLVQPGGSLRLSCAASGFTFSRHAMAWVRQAPGKGLEWVSAITASGRSIYYADSVKGRFTISRDNSKNTLYLQMNSLRAEDTAVYYCARVHRAFDYWGQGTLVTVSS VL: QSVLTQPPSASGTPGQRVTISCSGSPLFPDSGSFNWYQQLPGTAPKLLIYADSHRPSGVPDRFSGSKSGTSASLAISGLRSEDEADYYCGTWDYSLSSYVLGGGTKLTVLG", "readingUnit": "nM", "Kd": 0.0431}
